Below: a set of entries, each annotated with reported EC50.
Biological target: ligand binding domain of human FXR (Homo sapiens)
Construct: purchased Thermofisher (LanthaScreen) PV4833
Assay: biochemical
Settings: −log EC50, concentration required to produce 50% activation; FRET 520 nm/495 nm, 1 hour at room temperature; read-out: Ligand Binding pEC50 (converted)
measured attribute: EC50

| compound | experimental result |
| --- | --- |
| O=C(O)c1ccc(N2C[C@@H]3C[C@H]2C[C@H]3OCc2c(C3CC3)cnn2-c2c(Cl)cccc2Cl)cc1 | 6.31 nM |
| C[C@@H]1[C@@H]2C[C@@H](C[C@H]2OCc2c(C3CC3)cnn2-c2c(Cl)cccc2Cl)N1c1ccc(C(=O)NS(=O)(=O)C2CCOCC2)c(F)c1 | 398 nM |
| O=C(O)c1cc(F)c2nc(N3C[C@@H]4C[C@H]3C[C@H]4OCc3c(C4CC4)cnn3-c3c(Cl)cccc3Cl)sc2c1 | 15.8 nM |
| O=C(O)c1ccc(N2C[C@@H]3C[C@H]2C[C@H]3OCc2c(C3CC3)nnn2-c2c(Cl)cccc2Cl)cc1 | 6.31 nM |
| O=C(NS(=O)(=O)C1CCOC1)c1ccc(N2C[C@@H]3C[C@H]2C[C@H]3OCc2c(C3CC3)cnn2-c2c(Cl)cccc2Cl)cc1 (stereo partly drawn) | 3.98 nM |
| O=C(O)c1cc([C@H]2CCOC2)c2nc(N3C[C@@H]4C[C@H]3C[C@H]4OCc3c(-c4c(Cl)cccc4Cl)nnn3C3CC3)sc2c1 (single isomer, unassigned) | 25.1 nM |
| O=C(O)c1ccc(N2C(=O)[C@@H]3C[C@H]2C[C@H]3OCc2c(C3CC3)cnn2-c2c(Cl)cccc2Cl)cc1F | 39.8 nM |
| O=C(O)C1CC(c2ccc(N3C[C@@H]4C[C@H]3C[C@H]4OCc3c(C4CC4)cnn3-c3c(Cl)cccc3Cl)c(F)c2)C1 (stereo partly drawn) | 31.6 nM |
| CS(=O)(=O)CCNC(=O)c1ccc(N2C[C@@H]3C[C@H]2C[C@H]3OCc2c(-c3c(Cl)cccc3Cl)cnn2C2CC2)cc1F | 398 nM |
| O=C(O)c1cc([C@H]2CCOC2)c2nc(N3C[C@@H]4C[C@H]3C[C@H]4OCc3c(C4CC4)nnn3-c3c(Cl)cccc3Cl)sc2c1 (single isomer, unassigned) | 2 nM |
| O=C(O)c1ccc(N2C[C@@H]3C[C@H]2C[C@H]3OCc2c(C3CC3)cnn2-c2c(F)cccc2Cl)cc1F | 39.8 nM |
| O=C(O)c1ccc(N2C[C@@H]3C[C@H]2C[C@H]3OCc2c(-c3c(Cl)cccc3Cl)cnn2C2CC2)cc1F | 251 nM |

* * *

Biological target: ligand binding domain of human FXR (Homo sapiens, UniProt Q96RI1)
Construct: purchased Thermofisher (LanthaScreen) PV4833
Sequence (Q96RI1 262-486 limits assumed): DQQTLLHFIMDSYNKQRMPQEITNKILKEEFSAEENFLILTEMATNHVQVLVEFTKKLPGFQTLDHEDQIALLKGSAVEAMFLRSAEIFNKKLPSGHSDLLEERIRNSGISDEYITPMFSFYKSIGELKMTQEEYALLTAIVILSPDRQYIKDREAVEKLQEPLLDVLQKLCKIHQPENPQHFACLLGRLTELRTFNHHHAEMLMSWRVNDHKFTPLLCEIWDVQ
Assay: biochemical
Conditions: extent of activation relative to GW4064; read-out: Ligand Binding % Efficacy
measured attribute: Emax (%)

| smiles representation | experimental result |
| --- | --- |
| O=C(O)c1ccc(N2C[C@@H]3C[C@H]2C[C@H]3OCc2c(C3CC3)cnn2-c2c(Cl)cccc2Cl)cc1 | 121 |
| O=C(O)c1cc(C2CCC2)c2nc(N3C[C@@H]4C[C@H]3C[C@H]4OCc3c(-c4c(Cl)cccc4Cl)nnn3C3CC3)sc2c1 | 178 |
| CC[C@@H]1[C@@H]2C[C@@H](C[C@H]2OCc2c(C3CC3)cnn2-c2c(Cl)cccc2Cl)N1c1ccc(C(=O)O)c(F)c1 | 47 |
| O=C(NS(=O)(=O)C1CCOCC1)c1ccc(N2C(=O)[C@@H]3C[C@H]2C[C@H]3OCc2c(C3CC3)cnn2-c2c(Cl)cccc2Cl)cc1F | 185 |
| Cc1cccc(C)c1-n1ncc(C2CC2)c1CO[C@@H]1C[C@@H]2C[C@H]1CN2c1ccc(C(=O)O)c(F)c1 | 134 |
| O=C(O)c1cc(F)c2nc(N3C[C@@H]4C[C@H]3C[C@H]4OCc3c(-c4c(Cl)cccc4Cl)cnn3C3CC3)sc2c1 | 62 |
